Cited source for all entries: patent US20240043427A1

# TARGET_SYSTEM: CD73 (Homo sapiens (Human), UniProt P21589)
# Sequence (P21589 27-574): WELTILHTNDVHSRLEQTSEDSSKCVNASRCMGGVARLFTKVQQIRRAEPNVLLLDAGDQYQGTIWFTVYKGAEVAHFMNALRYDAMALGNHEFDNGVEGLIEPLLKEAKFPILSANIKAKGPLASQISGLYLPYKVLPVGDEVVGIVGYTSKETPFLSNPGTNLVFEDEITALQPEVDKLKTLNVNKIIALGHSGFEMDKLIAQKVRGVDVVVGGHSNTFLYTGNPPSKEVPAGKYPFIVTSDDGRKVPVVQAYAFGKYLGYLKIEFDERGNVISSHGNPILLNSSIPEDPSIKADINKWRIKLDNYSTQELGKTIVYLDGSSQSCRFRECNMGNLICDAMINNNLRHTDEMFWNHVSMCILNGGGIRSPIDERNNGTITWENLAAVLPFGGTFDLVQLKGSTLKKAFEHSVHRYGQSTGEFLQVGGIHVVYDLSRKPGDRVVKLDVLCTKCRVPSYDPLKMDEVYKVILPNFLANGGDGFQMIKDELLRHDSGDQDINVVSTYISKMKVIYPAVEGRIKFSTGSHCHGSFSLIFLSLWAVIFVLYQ
# ASSAY_SUMMARY: MDA-MB-231 Cell Based CD73 Activity Assay (DMEM)
# PROTOCOL_CONDITIONS: MDA-MB-231-GFP cells, DMEM medium with 10% human plasma, 200 uM AMP
Known pEC50 of a selection of compounds
// pEC50 here means minus log10 of the molar concentration (mol/L)

Examples with their reported pEC50 follow.
>  <COMPOUND>
CC(C)[C@@H]1CCN(c2cc(-c3c[nH]c(=O)[nH]c3=O)nn3ccnc23)C1

>  <TARGET_SYSTEM>
CD73 (Homo sapiens (Human), UniProt P21589)

>  <REPORTED_VALUE>
6.67

$$$$
>  <COMPOUND>
O=c1[nH]cc(-c2cc(N3CC4CCCC43)c3nccn3n2)c(=O)[nH]1 (stereo not drawn)

>  <TARGET_SYSTEM>
CD73 (Homo sapiens (Human), UniProt P21589)

>  <REPORTED_VALUE>
7.71

$$$$

Please examine the following record next.
Return reported pEC50; argument: O=c1[nH]cc(-c2cc([C@H]3C[C@@H]3c3cnc4c(F)nn(CC(F)(F)F)c4c3)c3nccn3n2)c(=O)[nH]1
9.59

====

# TARGET_SYSTEM: CD73 (Homo sapiens (Human), UniProt P21589)
# ASSAY_SUMMARY: MDA-MB-231 Cell Based CD73 Activity Assay (DMEM)
# PROTOCOL_CONDITIONS: MDA-MB-231-GFP cells, DMEM medium with 10% human plasma, 200 uM AMP
pEC50: −log10 of the molar value.
Could you label it y if measured pEC50 is 9 or higher, and n otherwise?

Solved entries (count: 2):
>  <MOLECULE>
O=c1[nH]cc(-c2cc([C@H]3C[C@@H]3c3cc4c(ccn4CC(F)(F)F)cn3)c3nccn3n2)c(=O)[nH]1 [Example 705]

>  <CATEGORY>
y

$$$$
>  <MOLECULE>
CC1(C)CN(c2cc(-c3c[nH]c(=O)[nH]c3=O)nn3ccnc23)C(=O)O1 [Example 514]

>  <CATEGORY>
n

$$$$

Determine whether measured pEC50 meets or exceeds 9 for O=C1N(CC(F)(F)F)c2cc([C@H]3C[C@@H]3c3cc(-c4c[nH]c(=O)[nH]c4=O)nc4ccnn34)ccc2C12CC2 [Example 715]
y

What do we get for CC(C)NC(=O)CC1CCN(c2cc(-c3c[nH]c(=O)[nH]c3=O)nn3ccnc23)C1 (stereo not drawn) [Example 654] ?
n

Same again, this time with O=c1[nH]cc(-c2cc([C@H]3C[C@@H]3c3ccc4ccn(CC(F)(F)F)c4n3)c3nccn3n2)c(=O)[nH]1 [Example 126]
y

Same thing, different molecule: O=c1[nH]cc(-c2cc(N3CC(F)(F)C4(CN(Cc5cccc(F)c5)C4)C3)c3nccn3n2)c(=O)[nH]1 [Example 502]
n

====

# TARGET_SYSTEM: UniProt:P21589
# ASSAY_SUMMARY: MDA-MB-231 Cell Based CD73 Activity Assay (DMEM)
# PROTOCOL_CONDITIONS: MDA-MB-231-GFP cells, DMEM medium with 10% human plasma, 200 uM AMP
Group membership follows EC50 per the scheme low bracket: < 0.02 µM; middle bracket: ≥ 0.02 µM and < 0.09 µM; high bracket: ≥ 0.09 µM

Some solved entries appear below for comparison.
>  <COMPOUND>
O=c1[nH]cc(-c2cc([C@H]3C[C@@H]3c3ccc4cnn(CC(F)(F)F)c4c3)c3ncc(Cl)n3n2)c(=O)[nH]1 [Example 470]

>  <CATEGORY>
low bracket

$$$$
>  <COMPOUND>
O=c1[nH]cc(-c2cc([C@H]3C[C@@H]3c3ccc(F)cc3F)c3nc(C4CC4)cn3n2)c(=O)[nH]1 [Example 146]

>  <CATEGORY>
middle bracket

$$$$
>  <COMPOUND>
O=c1[nH]cc(-c2cc([C@H]3C[C@@H]3c3ccc(OC(F)F)cc3)c3nccn3n2)c(=O)[nH]1 (racemic) [Example 556]

>  <CATEGORY>
low bracket

$$$$

Sort into band: O=c1[nH]cc(-c2cc(NCCc3cccc(F)c3)c3nccn3n2)c(=O)[nH]1 [Example 492]
middle bracket

Thanks! And C[C@H]1CN(c2cc(-c3c[nH]c(=O)[nH]c3=O)nn3c(Cl)cnc23)CC1(F)F [Example 520] ?
high bracket

Could you do the same for O=c1[nH]cc(-c2cc(N3CC(OC(F)F)C4(CC4)C3)c3nccn3n2)c(=O)[nH]1 (stereo not drawn) [Example 343] , please?
high bracket

One more compound: O=c1[nH]cc(-c2cc([C@H]3C[C@@H]3c3ccc(Cl)c(F)c3)c3nccn3n2)c(=O)[nH]1 (racemic) [Example 98]
low bracket

Request: O=c1[nH]cc(-c2cc([C@H]3C[C@@H]3c3cnc4c(F)nn(CC(F)(F)F)c4c3)c3ncc(Cl)n3n2)c(=O)[nH]1 [Example 719]
low bracket

Ok, now O=c1[nH]cc(-c2cc(OCC(F)(F)c3ccccc3)c3nccn3n2)c(=O)[nH]1 [Example 682]
low bracket

Next compound: O=c1[nH]cc(-c2cc(N3CCC(c4ccccc4C(F)(F)F)C3)c3nccn3n2)c(=O)[nH]1 (stereo not drawn) [Example 250]
high bracket

Likewise for N#Cc1ccc(C2CN(c3cc(-c4c[nH]c(=O)[nH]c4=O)nn4ccnc34)C2)cc1 [Example 247] ?
high bracket

Moving on to CC(n1ncc2ccc([C@H]3C[C@@H]3c3cc(-c4c[nH]c(=O)[nH]c4=O)nn4ccnc34)cc21)C(F)(F)F (stereo partly drawn) [Example 617]
low bracket

Same question for O=c1[nH]cc(-c2cc([C@H]3C[C@@H]3c3ncc(C(F)(F)F)cc3F)c3nccn3n2)c(=O)[nH]1 (racemic) [Example 582] please.
low bracket
